biological target: mouse TRPM3α2 (mTRPM3) ion channel (Mus musculus (Mouse)); test: TRPM3 ion channel driven Ca2+ uptake, Fluo-4 AM assay, mTRPM3alpha2 overexpressing flip-in HEK293 cells stimulated with pregnenolone sulfate; format: cell-based; details: PS (50 μM) stimulated, cpd 001-199
Sequence (J9SQF3 other isoform, or with tags, fused parts or gaps): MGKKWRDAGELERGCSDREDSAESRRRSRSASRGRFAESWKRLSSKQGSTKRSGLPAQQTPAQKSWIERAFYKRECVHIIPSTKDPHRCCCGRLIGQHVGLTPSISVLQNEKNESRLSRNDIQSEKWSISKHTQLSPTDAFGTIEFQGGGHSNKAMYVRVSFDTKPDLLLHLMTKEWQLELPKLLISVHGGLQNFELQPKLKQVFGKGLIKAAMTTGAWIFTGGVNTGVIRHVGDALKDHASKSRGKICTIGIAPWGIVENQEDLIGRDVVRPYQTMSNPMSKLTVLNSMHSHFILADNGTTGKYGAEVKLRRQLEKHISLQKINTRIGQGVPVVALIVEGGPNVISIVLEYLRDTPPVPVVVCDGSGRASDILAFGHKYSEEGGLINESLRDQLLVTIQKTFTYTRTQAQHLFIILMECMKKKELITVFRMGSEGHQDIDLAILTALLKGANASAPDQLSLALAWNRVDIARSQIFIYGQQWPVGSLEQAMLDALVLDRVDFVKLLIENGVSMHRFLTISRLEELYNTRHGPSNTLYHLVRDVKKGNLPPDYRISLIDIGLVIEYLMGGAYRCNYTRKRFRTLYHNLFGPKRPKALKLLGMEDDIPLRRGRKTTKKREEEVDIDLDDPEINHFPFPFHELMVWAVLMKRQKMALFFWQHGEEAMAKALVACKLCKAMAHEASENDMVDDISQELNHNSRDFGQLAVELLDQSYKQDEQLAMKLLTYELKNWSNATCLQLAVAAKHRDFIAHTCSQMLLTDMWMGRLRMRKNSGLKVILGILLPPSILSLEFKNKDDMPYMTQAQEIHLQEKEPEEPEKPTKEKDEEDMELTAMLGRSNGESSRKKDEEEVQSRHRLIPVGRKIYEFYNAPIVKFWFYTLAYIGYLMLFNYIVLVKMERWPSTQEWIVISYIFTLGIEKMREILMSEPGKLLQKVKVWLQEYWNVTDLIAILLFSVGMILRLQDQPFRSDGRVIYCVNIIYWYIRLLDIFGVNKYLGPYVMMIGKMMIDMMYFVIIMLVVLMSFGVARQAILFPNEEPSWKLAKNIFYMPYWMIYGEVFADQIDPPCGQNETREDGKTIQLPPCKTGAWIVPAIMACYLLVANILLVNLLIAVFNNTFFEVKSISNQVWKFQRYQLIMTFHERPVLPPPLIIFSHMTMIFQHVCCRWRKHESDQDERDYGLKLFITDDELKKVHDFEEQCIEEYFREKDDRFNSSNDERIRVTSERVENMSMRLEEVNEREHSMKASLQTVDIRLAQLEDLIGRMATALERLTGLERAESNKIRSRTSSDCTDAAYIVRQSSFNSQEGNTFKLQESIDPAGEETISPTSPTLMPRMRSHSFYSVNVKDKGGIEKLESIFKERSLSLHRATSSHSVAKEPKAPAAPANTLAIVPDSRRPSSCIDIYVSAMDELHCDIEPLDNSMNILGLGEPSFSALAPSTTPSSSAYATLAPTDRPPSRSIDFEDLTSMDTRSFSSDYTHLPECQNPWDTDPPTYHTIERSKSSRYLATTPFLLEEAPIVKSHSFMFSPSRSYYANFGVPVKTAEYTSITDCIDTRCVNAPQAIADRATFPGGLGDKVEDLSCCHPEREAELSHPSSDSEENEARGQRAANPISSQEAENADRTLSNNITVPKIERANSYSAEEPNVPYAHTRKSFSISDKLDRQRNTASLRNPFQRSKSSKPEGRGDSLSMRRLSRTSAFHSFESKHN
pIC50: −log10 of the molar value.
pIC50 values by entry

{"compound": "Cc1ncsc1COc1ccc2oc(C)c(C(=O)NC3CCOC3)c2c1 (single isomer, unassigned)", "pIC50": "> 6.00"}
{"compound": "Cc1ncsc1COc1ccc2oc(C)c(C(=O)NC3(CO)CCOCC3)c2c1C#N", "pIC50": "< 4.70"}
{"compound": "Cc1oc2cc(C#N)c(OCc3cccnc3C(F)(F)F)cc2c1C(=O)NC1CCNCC1(F)F (single isomer, unassigned) [195-En 2]", "pIC50": "< 4.70"}
{"compound": "Cc1oc2ccc(OCc3nc(C(F)(F)F)cs3)cc2c1C(=O)NC1CCOC1 (centres unmarked)", "pIC50": "< 4.70"}
{"compound": "Cc1oc2ccc(OCc3cccnc3)cc2c1C(=O)NC1CCNC1=O (centres unmarked)", "pIC50": "> 6.00"}
{"compound": "Cc1ncsc1COc1ccc2oc(C)c(C(=O)NC3(CCO)CCOC3)c2c1 (single isomer, unassigned)", "pIC50": "> 6.00"}
{"compound": "Cc1oc2ccc(OCc3cccnc3)cc2c1C(=O)N[C@H]1CCNC1", "pIC50": "> 6.00"}
{"compound": "Cc1cncc(COc2ccc3oc(C)c(C(=O)N[C@H]4CCNC4)c3c2)c1", "pIC50": "> 6.00"}
